What growth was measured for each of the following?
# System: A549/ATCC NSCLC
# experimental.details: NCI-60 one-dose screen, 48 h (100 = growth as untreated, 0 = no growth, -100 = all killed)
# particulars: 10 µM
About 83,000 compounds went through this panel and 20% of them were active in at least one assay; those are over-represented in the sample as a whole.
Numbers only, in %.

Examples from the recorded data:
| molecule | growth (%) |
| --- | --- |
| S=c1sc2ccccc2n1CN1CCCCC1 | 99.2 |
| O=C(O)c1ccc(S(=O)(=O)O)cc1 | 91.5 |
| Oc1ccc(Cc2ccccc2)c2cccnc12 | 16.2 |
| CCOC(=O)CCCS(C)(=O)=O | 109 |
| O=c1[nH]nc(SC2CCCCC2)c(=O)[nH]1 | 91.4 |
| CC1(C)Nc2cccc3c(N=Nc4ccc(N=Nc5ccccc5)c5ccccc45)ccc(c23)N1 | 99.3 |
| CC1OC(Oc2c(-c3ccc(O)c(O)c3)oc3cc(O)cc(O)c3c2=O)C(O)C(O)C1O (stereo not drawn) | 102 |
| O=[N+]([O-])c1ccc(N=Nc2ccccc2)cc1 | 89 |

Give growth for each of the items listed below.
1. Cc1c(C(=O)O)c(=O)n(-c2ccccc2)n1C
2. O=S(=O)(O)c1ccc(O)c2ccccc12
3. COc1cc(OC)c2ccc(=O)oc2c1

Result:
[108, 118, 97]

Need growth for each of these molecules.
1. CCCCC1(CC)COC(CCC)OC1 (stereo not drawn)
2. Nc1ccc(CC(=O)O)c(N)c1
3. CCCCC1C(=O)N(c2ccccc2)N(c2ccccc2)C1=O
4. CN(c1ccccc1)c1ncnc2c1ncn2C
5. CCOC(=O)CSc1c([N+](=O)[O-])ncn1C
6. O=C(O)/C=C/c1ccc2c(c1)CCC2

Result:
[103, 99.7, 106, 87.3, 97.6, 106]

Batch of 6 molecules: report growth for each.
1. N#CC1(Nc2ccc3c4c(cccc24)CC3)CCCCC1
2. c1cc[n+](C2c3ccccc3C([n+]3ccccc3)c3ccccc32)cc1 (stereo not drawn)
3. N#Cc1ccc(NC(=O)Nc2cccc(C#N)c2)cc1
4. Cc1ccncc1C(N)=O
5. CCOC(=O)c1ccc(Nc2sc(C(=O)c3cccc([N+](=O)[O-])c3)c(N)c2C#N)cc1
6. C=CC[N+](C)(C)C

Result:
1. 95
2. 78.5
3. 69.1
4. 108
5. 48.3
6. 100

Would you be so kind as to report growth for each listed record?
1. CSc1[nH]c(=O)ncc1F
2. O=S(=O)(Cc1ccccc1)c1ccccc1
3. C#CC(C(C)C)N(CCO)CCCC (stereo not drawn)

Result:
[93.3, 98.6, 95.8]

# map each molecule to its growth
1. Cc1cc(=O)cc(C)n1-c1ccccc1
2. Cc1ccc(Cl)cc1NC(=O)N(C)CCO

Result:
1. 99.1
2. 59.5

----------
# Test system: CAKI-1 renal
# experimental.details: NCI-60 one-dose screen, 48 h (100 = growth as untreated, 0 = no growth, -100 = all killed)
# particulars: 10 µM
The panel holds about 83,000 compounds, 20% with a hit somewhere; the sample as a whole holds those more often.
attribute.measured: growth (%)
Answers are plain numbers, in %.

Please review the entries below; each comes with its answer.
| molecule | attribute.measured | test.result |
| --- | --- | --- |
| Cc1cccc([N+](=O)[O-])c1Cl | growth | 92.3 |
| CC12CC3CC1C(C(=O)O2)C3C(=O)O (configuration not stated) | growth | 102 |
| Cc1ccc(C(O)C2CC2)cc1 (configuration not stated) | growth | 91.9 |
| O=C(/C(=N/O)c1ccccc1)c1ccccc1 | growth | 100 |

# return growth for each item in the list
1. CCCOC(=O)C(O)c1ccccc1 (configuration not stated)
2. CN(C)c1ccc(S(=O)(=O)O)cc1
3. O=C(CCl)N1CCN(C/C=C/c2ccccc2)CC1
4. CSC[C@H](NC(=O)COc1cccc2cnccc12)C(=O)NC(Cc1ccccc1)C(O)C(=O)N1CSC[C@H]1C(=O)NC(C)(C)C (some centres not stated)
5. COc1cc(CCN=Cc2ccccc2O)c([N+](=O)[O-])cc1OC
6. Cc1ccc(O)c(C(=O)c2ccccc2)c1
7. CN(C)c1ccc2nc3ccc(=N)cc-3sc2c1
8. CCCC(C)OCC(=O)O (configuration not stated)

Result:
1. 96.3
2. 105
3. 99.3
4. 95.5
5. 86.6
6. 104
7. 68.3
8. 97.5

# batch size: 7; output growth per entry
1. CC(=O)OC1CC2C(C)(C)OC3CC(=O)OCC32C2CCC3(C)C(=CCC3c3ccoc3)C12C (configuration not stated)
2. CNC(=S)NC(C)(C)C
3. CCOC(=O)C(CCC(C)C)C(=O)OCC
4. CCOC(=O)C(=O)C=P(c1ccccc1)(c1ccccc1)c1ccccc1
5. Cc1cc(=O)[nH]c(NN=C2CCCC2)n1
6. Cc1cccc(C(=O)N(C(C)C)C(C)C)c1
7. COc1cc(/C=C(\C#N)C(=O)c2ccccc2)ccc1OCc1ccccc1

Result:
98.7
92.6
100
101
100
96.4
96.5
